molecular target: Collagenase-III; test: MMP enzymatic assay, hydrolysis of MCA-Pro-Leu-Gly-Leu-DPA-Ala-Arg-NH2, Collagenase-III; settings: 37° C., pH 7.5, 2.5% DMSO
Measured Endpoint: IC50 (nM)

(I) C[C@@H](NS(=O)(=O)N1CCN(c2ccc(Cl)cc2)CC1)C(=O)O
(II) COCCN(CC(=O)NO)S(=O)(=O)N1CCN(c2ccc(Cl)cc2)CC1
(III) CN(Cc1ccccc1)S(=O)(=O)N(CC(=O)NO)Cc1ccccc1
(IV) O=C(NO)[C@H](CSCc1ccccc1)NS(=O)(=O)N1CCN(c2ccc(Cl)cn2)CC1
(V) CC(C)[C@@H](NS(=O)(=O)N1CCC(Oc2ccc(F)cc2)CC1)C(=O)NO
## Input Sort the listed molecules above so the one with the largest IC50 comes first and the smallest comes last. Please write the labels in the order that was asked for.
## Output I, III, II, IV, V
(I: 3400 nM, III: 56 nM, II: 21 nM, IV: 0.92 nM, V: 0.073 nM)

These entries and their values trace back to patent US6130220A.
